Origin of measurements: patent EP4667463A1

protocol: in vitro
run.conditions: human, microsomes
endpoint.label: half-life at 1 µM (h)

(I) O=C1CCC(N2Cc3cc(CNC(=O)Nc4ccc(CCCOC5CNC5)c(Cl)c4)ccc3C2=O)C(=O)N1 (centres unmarked)
(II) O=C1CCC(N2Cc3cc(CNC(=O)Nc4ccc(CCCOC5CCNCC5)c(Cl)c4)ccc3C2=O)C(=O)N1 (centres unmarked)
Hi there, can you help? I need to know whether I or II has lower measured half-life at 1 µM. Respond using the label that marks the chosen record. II

###

protocol: in vitro
run.conditions: rat, liver microsomes
endpoint.label: CLint scaled at 1 µM (mL/min/kg)
Give the quantity in mL/min/kg, number only.

Would you mind telling me what CLint scaled at 1 µM value was observed for O=C1CCC(N2Cc3cc(CNC(=O)Nc4ccc(CCCOC5CCCNC5)c(Cl)c4)ccc3C2=O)C(=O)N1 (stereo not shown) ? 6.55

###

protocol: in vitro
run.conditions: monkey, liver microsomes
endpoint.label: half-life at 1 µM (h)
Give the quantity in h, number only.

Consider the compound shown here: O=C1CCC(N2Cc3cc(CNC(=O)Nc4ccc(CCCOC5CCCNC5)c(Cl)c4)ccc3C2=O)C(=O)N1 (stereo not shown) [Compound B19] What is its recorded half-life at 1 µM? 3

###

protocol: in vitro
run.conditions: monkey, liver microsomes
endpoint.label: CLint scaled at 1 µM (mL/min/kg)
Return type: number; implicit unit mL/min/kg.

Query (compound): O=C1CCC(N2Cc3cc(CNC(=O)Nc4ccc(CCCOC5CCCNC5)c(Cl)c4)ccc3C2=O)C(=O)N1 (stereo not shown) [Compound B19] ; field requested: CLint scaled at 1 µM 11.3

###

protocol: in vitro
run.conditions: mouse, liver microsomes
endpoint.label: CLint scaled at 1 µM (mL/min/kg)
Only the number, expressed in mL/min/kg, is required.

// lookup CLint scaled at 1 µM for O=C1CCC(N2Cc3cc(CNC(=O)Nc4ccc(CCCOC5CCCNC5)c(Cl)c4)ccc3C2=O)C(=O)N1 (stereo not shown) [Compound B19] 17

###

protocol: in vitro
run.conditions: mouse, microsomes
endpoint.label: CLint scaled at 1 h, 1 µM (mL/min/kg)
Entry rule: numbers only, all in mL/min/kg.

GET /values?readout=CLint scaled at 1 h, 1 µM&item= O=C1CCC(N2Cc3cc(CNC(=O)Nc4ccc(CCCOC5CCNCC5)c(Cl)c4)ccc3C2=O)C(=O)N1 (stereo not shown) [Compound B61] 23.7

###

Tested on: SK-BR-3
protocol: In vitro anti-tumor activity of molecular glue compounds, CellTiter-Lumi cell viability assay
Format: cell-based
run.conditions: Homo sapiens; SK-BR-3 cells, 96 h incubation; read-out: Cell inhibitory activity (IC50 values) SK-BR-3
IC50 for assorted compounds

Reference set, count: 5
O=C1CCC(N2Cc3cc(CNC(=O)Nc4ccc(CCCOC5CCNCC5)c(Cl)c4)ccc3C2=O)C(=O)N1 (centres unmarked) [Compound B61] ... < 10 nM
O=C1CCC(N2Cc3cc(CNC(=O)Nc4ccc(CCCOC5CCNC6CC65)c(Cl)c4)ccc3C2=O)C(=O)N1 (centres unmarked) [Compound B71] ... < 10 nM
O=C1CCC(N2Cc3cc(CNC(=O)Nc4ccc(CCCOC5CNC5)c(Cl)c4)ccc3C2=O)C(=O)N1 (centres unmarked) [Compound B63] ... < 10 nM
O=C1CCC(N2Cc3cc(CNC(=O)Nc4ccc(COC5CCCNC5)c(Cl)c4)ccc3C2=O)C(=O)N1 (centres unmarked) [Compound B7] ... 10 to 50 nM
CC1(OCCCc2ccc(NC(=O)NCc3ccc4c(c3)CN(C3CCC(=O)NC3=O)C4=O)cc2Cl)CCCNC1 (centres unmarked) [Compound B67] ... < 10 nM

Now examine the next entry.
Record O=C1CCC(N2Cc3cc(CNC(=O)Nc4ccc(CCOCCNC5CCOCC5)c(Cl)c4)ccc3C2=O)C(=O)N1 (centres unmarked) [Compound B48] : what is its IC50 with SK-BR-3? 50 to 100 nM
